# fold EC50 against 131AVH6VL6-hIgG1 annotations
Target: T1, human CD27 (human, UniProt P26842 21-260)
T1 construct: also called hCD27; HsCD27
Assay: cell ELISA on transfected CHO cells

Previously resolved entries follow.
Reported fold EC50 against 131AVH6VL6-hIgG1 ( hCD27.131A VH8VL6 huIgG1 (antibody, V domains shown) VH: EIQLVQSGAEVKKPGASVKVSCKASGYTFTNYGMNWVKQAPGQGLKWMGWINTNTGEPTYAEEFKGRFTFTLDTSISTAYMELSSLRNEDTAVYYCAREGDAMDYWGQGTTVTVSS VL: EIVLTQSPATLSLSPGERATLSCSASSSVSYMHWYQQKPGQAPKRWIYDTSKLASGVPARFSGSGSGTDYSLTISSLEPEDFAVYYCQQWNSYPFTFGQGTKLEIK ) = ≤ 2 fold

Reported fold EC50 against 131AVH6VL6-hIgG1 ( hCD27.131A VH6VL7 huIgG1 (antibody, V domains shown) VH: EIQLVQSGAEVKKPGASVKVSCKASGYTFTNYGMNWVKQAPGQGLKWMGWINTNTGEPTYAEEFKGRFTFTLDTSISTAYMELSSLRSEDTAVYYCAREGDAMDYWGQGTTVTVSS VL: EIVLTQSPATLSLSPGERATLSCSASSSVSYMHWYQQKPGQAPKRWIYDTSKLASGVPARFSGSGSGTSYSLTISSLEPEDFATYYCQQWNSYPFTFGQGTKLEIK ) = ≤ 2 fold

Field: next binder
Reported fold EC50 against 131AVH6VL6-hIgG1 ( hCD27.131A VH6VL7 huIgG4 (antibody, V domains shown) VH: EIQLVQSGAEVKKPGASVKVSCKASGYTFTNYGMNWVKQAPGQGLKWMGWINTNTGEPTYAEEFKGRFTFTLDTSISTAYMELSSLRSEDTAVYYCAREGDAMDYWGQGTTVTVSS VL: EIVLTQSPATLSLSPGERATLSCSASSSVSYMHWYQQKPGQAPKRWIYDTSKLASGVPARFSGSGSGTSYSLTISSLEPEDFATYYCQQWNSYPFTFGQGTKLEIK ) = ≤ 2 fold
